// provenance: patent US8012503B2

experiment: Solubility of ionized and non-ionized forms and ionization constant; format: physicochemical
reported-endpoint: solubility (µg/mL)
Answer in µg/mL, number only, no unit symbol.

*Q* # get_value(readout='solubility', item= CC(C)NCC(O)COc1cccc2ccccc12 (stereo not shown) [propranolol] )
*A* 539
